What composite z-score was measured for each of the following?
- Test system: PRMT1 (protein arginine N-methyltransferase 1)
- protocol: small molecules binding arginine methyltransferase PRMT1 – biochemical, small-molecule microarray, 635 nm fluorescence, primary screen (AID 1088);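 note: binding of Prmt1 protein to compounds spotted on small-molecule microarray slides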
- study.conditions: higher = more signal
Form field (numeric): enter value without unit.

Which composite z-score is reported for this compound? CC(C)N1C(=O)C[C@@](C(=O)O)(c2ccc([N+](=O)[O-])cc2)[C@H]1c1ccc(CO)cc1
1.01

Which composite z-score is reported for this compound? CCCCCC1=C2CNC(C)(C(=O)OC)C=C2C(C)C1=O (stereo not drawn)
-0.998

Which composite z-score is reported for this compound? CCCC=C(CCC)[C@@H](NC(=O)c1cccs1)c1ccc(C(=O)OC)cc1
-1.88

Which composite z-score is reported for this compound? COC(=O)[C@@]1(Cc2ccc(F)cc2)[C@H]2c3cc(C(=O)N(C)C)n(CCc4ccc(OC)c(Br)c4)c3C[C@H]2CN1C(=O)c1ccccc1
-0.0641

Which composite z-score is reported for this compound? CCCNC(=O)[C@@]1(C)c2ccccc2C(=O)N(c2ccc(C)cn2)[C@H]1c1ccc(CO)cc1
-0.266

Which composite z-score is reported for this compound? COc1cc2c(cc1O)C(c1cccs1)N(Cc1cc3c(cc1Br)OCO3)CC2 (stereo not drawn)
1.53

Which composite z-score is reported for this compound? COC(=O)[C@@]1(Cc2ccc(OC)cc2)[C@H]2c3cc(C(=O)N(C)C)n(Cc4ccc(OC(F)(F)F)cc4)c3C[C@H]2CN1C(=O)c1ccccc1
-0.708

Which composite z-score is reported for this compound? COc1cc(NN2C(C(O)c3ccc(N(C)C)cc3)C=CC3C(=O)N(c4ccccc4)C(=O)C32)cc(OC)c1OC (stereo not drawn)
0.824

* * *

- target.of.assay: Streptavidin (Streptomyces avidinii)
- protocol: compounds binding control protein streptavidin – biophysical, small-molecule microarray, 635/667 nm fluorescence, artefact control for SMM compound annotation, primary screen (AID 1147);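 note: signal reflects streptavidin binding to arrayed compounds as a control protein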
- study.conditions: higher = more signal
What composite z-score was measured for each of the following?
Form field (numeric): enter value without unit.

Which composite z-score is reported for this compound? O=C1C2C=CC(C(O)c3cccc(O)c3)N(Nc3ccc([N+](=O)[O-])cc3)C2C(=O)N1c1ccccc1 (configuration not stated)
0.514

Which composite z-score is reported for this compound? CCOC(=O)C=Cc1cccc(C)c1O
-0.259

Which composite z-score is reported for this compound? COc1ccc(CCNC(=O)[C@@]2(c3ccc([N+](=O)[O-])cc3)CC(=O)N(C3CCCCC3)[C@@H]2c2ccc(CO)cc2)cc1
0.0841

Which composite z-score is reported for this compound? COc1cc2c(cc1O)C=[N+](Cc1sc3ccccc3c1Cl)CC2
0.0042

Which composite z-score is reported for this compound? COc1ccc([Si](C)(C)[C@@H]2[C@@H](CC(=O)N(CCO)Cc3ccccc3)O[C@]3(C(=O)N(Cc4cccc(N5CCCCC5=O)c4)c4ccccc43)[C@H]2C)cc1
-0.402

Which composite z-score is reported for this compound? C=C(/C(=C/C[C@H](OC(C)=O)c1ccc(CO)o1)c1cnc2ccccc2c1)C(C)C
1.44

Which composite z-score is reported for this compound? CC[C@@H]1C=C(C(=O)O)[C@H](c2ccccc2)N1S(=O)(=O)c1ccc(C)cc1
0.0128

Which composite z-score is reported for this compound? CCOC(=O)C1=C[C@@H](C(C)(C)C)N(S(=O)(=O)c2ccc(C)cc2)[C@H]1c1cccc2ccccc12
0.823

Which composite z-score is reported for this compound? CC(C)[Si](C#C[Si](C(C)C)(C(C)C)C(C)C)(O[C@H](c1ccccc1)c1cn(Cc2ccccc2)nn1)C(C)C
0.652

Which composite z-score is reported for this compound? O=C(C1N=C(c2ccc(OCCCO)cc2)N(c2ccccc2)O1)N1CCCCC1 (configuration not stated)
1.56

Which composite z-score is reported for this compound? CC(C)N1C(=O)c2ccccc2[C@@H](C(=O)NCCN2CCOCC2)[C@@H]1c1ccc(CO)cc1
-1.14

Which composite z-score is reported for this compound? Cc1ccc(S[C@]2(C(=O)NCCN3CCOCC3)CC(=O)N(Cc3ccccc3Cl)[C@@H]2c2ccc(CO)cc2I)cc1
-0.343

Which composite z-score is reported for this compound? CCOC(=O)C1=C[C@@H](C(C)C)N(S(=O)(=O)c2ccc(C)cc2)[C@H]1c1ccc(C(F)(F)F)cc1
0.908

Which composite z-score is reported for this compound? C=CC[C@@H](OC(=O)Nc1ccc(OC)cc1)c1ccc(O)c(F)c1
-0.716

Which composite z-score is reported for this compound? COC(=O)[C@@]1(Cc2ccc(F)cc2)[C@H]2c3cc(C(=O)N(C)C)n(Cc4ccc(OC(F)(F)F)cc4)c3C[C@H]2CN1C(=O)c1ccccc1
0.686

Which composite z-score is reported for this compound? C=CCC(OC(C)=O)[C@@H]1[C@@H](N(Cc2cccc3ccccc23)C(=O)Cc2ccc(OC)cc2)c2cc(OCCCO)ccc2N1C(=O)c1ccc(-c2ccccc2)cc1 (some centres not stated)
0.107

Which composite z-score is reported for this compound? CC(C)[Si](C#CCCCC#N)(O[C@H](c1ccccc1)c1cn(Cc2ccccc2)nn1)C(C)C
0.62

Which composite z-score is reported for this compound? CCCC[C@@H](O)C1=C(COC)C[C@H]2C(=O)N(C)C(=O)[C@H]2[C@H]1CO
0.45

Which composite z-score is reported for this compound? CCCCCCCCCCC(O)C1C=CC2C(=O)N(c3ccccc3)C(=O)C2N1Nc1ccc(C#N)cc1 (configuration not stated)
1.66

Which composite z-score is reported for this compound? Cc1ccc(S[C@]2(C(=O)O)CC(=O)N(C3CCCCC3)[C@@H]2c2ccc(CO)cc2I)cc1
1.43

Which composite z-score is reported for this compound? C[N+](C)(C)CCCC[C@@H]1NC(=O)[C@@H]2C[C@H](C(=O)NCCCCCCN)[C@H](c3cccc(OCCO)c3)N2C1=O
1.67

Which composite z-score is reported for this compound? O=c1cccc(-c2ccc([N+](=O)[O-])cc2)o1
0.315

Which composite z-score is reported for this compound? COc1cc(NN2C(C(O)c3ccco3)C=CC3C(=O)N(C)C(=O)C32)cc(OC)c1OC (configuration not stated)
0.536

Which composite z-score is reported for this compound? COC(=O)[C@@]1(Cc2ccc(OC)cc2)[C@H]2c3cc(C(=O)N4CCCC4)n(CCc4c[nH]c5ccc(OC)cc45)c3C[C@H]2CN1C(=O)c1ccccc1
1.5

Which composite z-score is reported for this compound? COC(=O)[C@@H]1N=C(c2ccc(OCCCO)cc2)O[C@@H]1C
-0.69

Which composite z-score is reported for this compound? CC(C)C[C@@H]1NC(=O)[C@@H]2C[C@H](C(=O)NCCCCCCN)[C@H](c3cccc(OCCO)c3)N2C1=O
0.919

Which composite z-score is reported for this compound? COC(=O)[C@@]1(Cc2ccc(F)cc2)[C@H]2c3cc(C(=O)N(C)C)n(CCc4ccc(OC)c(Br)c4)c3C[C@H]2CN1C(=O)c1ccccc1
0.221

Which composite z-score is reported for this compound? COC(=O)C1=CC(CCCO)=CC(c2cccs2)N(C)C=C1C(=O)OC (configuration not stated)
0.0877

Which composite z-score is reported for this compound? OCCCC1=CC(c2ccc(CN3CCCC3)cc2)N(Cc2cc3c(cc2Br)OCO3)CC1 (configuration not stated)
0.0246

Which composite z-score is reported for this compound? CCOC(=O)C[C@H]1[C@H](OC(=O)c2ccc(C(=O)c3ccccc3)cc2)[C@@H](NC(=O)c2ccc(-c3ccccc3)cc2)c2cc(OCCCO)ccc2N1C(=O)Cc1ccc(OC)cc1
0.324

Which composite z-score is reported for this compound? COC(=O)[C@@]1(Cc2ccc(OC)cc2)[C@H]2c3cc(C(=O)N4CCCC4)n(CCc4c[nH]c5ccc(O)cc45)c3C[C@H]2CN1C(=O)c1ccccc1
0.971

Which composite z-score is reported for this compound? Cc1ccc(S[C@]2(C(=O)NC(C)C)CC(=O)N(Cc3cc(C(F)(F)F)cc(C(F)(F)F)c3)[C@@H]2c2ccc(CO)cc2)cc1
-1.18

* * *

- System: wheat germ agglutinin (Triticum aestivum), Alexa647-labelled
- protocol: Alexa647-WGA lectin binding to printed small molecules – biochemical, small-molecule microarray, 635/667 nm fluorescence, artefact control for SMM control-protein annotation, profiling panel (AID 1140);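 note: score merges 667 nm feature emission with signal to noise over triplicate slides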
- study.conditions: WGA-A647 binding, 635 nm fluorescence, higher = more signal
readout.name: composite z-score
Form field (numeric): enter value without unit.

Which composite z-score is reported for this compound? O=C(NCCN1CCOCC1)[C@@H]1c2ccccc2C(=O)N(Cc2ccccc2Cl)[C@H]1c1ccc(CO)cc1
0.0616

Which composite z-score is reported for this compound? Cc1ccc(C(C)CC(O)C2C=CC3C(=O)N(c4ccccc4)C(=O)C3N2Nc2ccccc2)o1 (stereo not given)
0.982

Which composite z-score is reported for this compound? O[C@@H](Cc1ccccc1)[C@@H](/C=C/C1CC1)N(CC#Cc1ccccc1)Cc1ccccc1Br
-1.11

Which composite z-score is reported for this compound? C=CC[C@]1(C(=O)N2CCCCC2)N=C(c2ccc(OCCCO)cc2)O[C@H]1c1ccccc1CN=[N+]=[N-]
0.657

Which composite z-score is reported for this compound? CCCCC=C[C@@H](NC(=O)OCc1ccccc1Cl)c1ccccc1
0.385
